This collection of values is drawn from patent US20220112288A1.

Test system: T1, human CD8 on human pan T cells (CD4-negative population) (human, UniProt P01732 22-235; P10966 22-210)
T1 construct: whole, on cells; Target is CD8 as it stands on primary human pan T cells
T1 sequence (P01732 22-235, chain 1 of 2): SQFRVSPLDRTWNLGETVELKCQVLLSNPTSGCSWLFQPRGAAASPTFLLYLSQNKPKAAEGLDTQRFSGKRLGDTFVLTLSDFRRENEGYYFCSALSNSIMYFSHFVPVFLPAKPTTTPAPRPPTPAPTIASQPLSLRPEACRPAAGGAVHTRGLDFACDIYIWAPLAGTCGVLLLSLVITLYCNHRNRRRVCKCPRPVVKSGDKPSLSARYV
T1 sequence (P10966 22-210, chain 2 of 2): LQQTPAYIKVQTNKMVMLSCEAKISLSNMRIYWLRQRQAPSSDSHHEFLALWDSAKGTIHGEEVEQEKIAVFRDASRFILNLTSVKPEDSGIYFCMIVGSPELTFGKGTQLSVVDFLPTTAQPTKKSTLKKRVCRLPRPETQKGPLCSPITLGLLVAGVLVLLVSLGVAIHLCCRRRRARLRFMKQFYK
Assay: flow cytometry, 20 nM antibody on human pan T cells, A647 anti-human IgG Fc; geomean ratio in CD4-negative population
Below, each of the binders is paired with its reported Cell Binding to Human PanT Signal/Background (of CD4 negative population) value.
Experimental endpoint: Cell Binding to Human PanT Signal/Background (of CD4 negative population) (signal/background)

- Binder: "CD8B337 (antibody, human IgG1, kappa, V domains shown, Full-length human IgG1, kappa) VH: QVTLKESGPGKVQPSQTLSLTCSFSGFSLSTSGMGVSWIRKPSGKGLEWLAHIFWDDDRRYKSSLKSRLTISKDTSSNQVFLMITSVDTADSATYYCARRVGYGDYAYFDVWGAGTTVTVSS VL: DIQMTQYPASLSVSVGETVTITCRASENIYSDLAWYQQKQGKSPQLLVYAATNLADGVPSRFSGSGSGTQYSLKINSLQSEDFGNYYCQHFWGTPWTFGGGTKLEIKR"
  Units label: "signal/background"
  Recorded number: 1980
- Binder: "CD8B192 (antibody, human IgG1, kappa, V domains shown, Full-length human IgG1, kappa) VH: QVQLQQSGPVLVKPGASVKMSCKASGYTFTDYYMNWVMQSHGKSLEWIGVINPYNGGTTYNQRFTGKATLTVDKSSSTAYMELNSLTSEDSAVYYCARNYGAMDSWGQGTSVTVSS VL: DIQMTQSPASLSASVGETVTITCRASGNIHNYLAWYQQKQGKSPQLLVSNAKTLADGVPSRFGGSGSGTQYSLKINSLQPEDFGSYYCQHFWITPPTFGAGTRLEIKR"
  Units label: "signal/background"
  Recorded number: 22
- Binder: "CD8B245 (antibody, human IgG1, kappa, V domains shown, Full-length human IgG1, kappa) VH: EFQLQQSGGGLVQPGGSLSLSCAAPGFTFTDYYMSWVRQSPGKALEWLALSRNKGNGYTTEYSASVKGRFTISRDNSQSILYLQMNVLRAEDSATYYCARTVTGTLFYYALDYWGQGTTVTVSS VL: DIQMTQSPASLSASVGETVTITCRASENIYSYLAWYQQKQGKSPQFLVYNAKTLAAGVPSRFSGSGSGTQFSLKINRLQPEDFGTYYCQHHYGTPLTFGDGTRLEIKR"
  Units label: "signal/background"
  Recorded number: 44
